# ASSAYED SYSTEM: T1, Human CD228 protein (human, UniProt P08582 20-708, limits assumed)
# T1 construct: Recombinant protein made in CHO cells, purified over a Ni column; The printed entry begins with the leader (MRGPSG...) and ends with ten His; also called hCD228; CD228-His protein
# T1 sequence: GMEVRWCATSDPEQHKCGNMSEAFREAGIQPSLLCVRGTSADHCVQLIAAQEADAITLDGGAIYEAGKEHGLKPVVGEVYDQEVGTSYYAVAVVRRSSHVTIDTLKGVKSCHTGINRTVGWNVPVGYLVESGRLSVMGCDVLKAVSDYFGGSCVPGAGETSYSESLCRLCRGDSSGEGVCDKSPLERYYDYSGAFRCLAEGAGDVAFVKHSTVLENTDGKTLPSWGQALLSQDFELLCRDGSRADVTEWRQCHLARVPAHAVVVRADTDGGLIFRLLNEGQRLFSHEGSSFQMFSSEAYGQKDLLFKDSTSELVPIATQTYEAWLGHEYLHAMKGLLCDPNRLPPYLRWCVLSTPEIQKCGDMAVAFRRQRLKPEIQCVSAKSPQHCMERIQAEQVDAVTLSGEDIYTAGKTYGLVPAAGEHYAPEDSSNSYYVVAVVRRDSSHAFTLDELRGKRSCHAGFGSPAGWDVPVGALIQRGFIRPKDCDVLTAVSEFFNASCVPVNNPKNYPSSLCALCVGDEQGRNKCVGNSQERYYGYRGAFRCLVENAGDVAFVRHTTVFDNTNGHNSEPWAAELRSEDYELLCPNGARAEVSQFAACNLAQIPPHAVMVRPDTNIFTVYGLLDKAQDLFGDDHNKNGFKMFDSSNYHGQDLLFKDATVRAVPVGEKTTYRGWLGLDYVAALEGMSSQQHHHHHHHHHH
# TEST NAME: Octet competition on His-chip CD228; competitor: CA149
PARAMETER MEASURED: competition (1-response value/blank value) (%)

BINDER | EXPERIMENTAL RESULT
CA149 (antibody, human IgG1, kappa, V domains shown, Intact IgG1; also called CA149 antibody) VH: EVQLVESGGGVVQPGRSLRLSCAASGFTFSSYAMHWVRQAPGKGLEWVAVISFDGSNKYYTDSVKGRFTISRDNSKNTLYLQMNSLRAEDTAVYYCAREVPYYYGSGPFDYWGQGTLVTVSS VL: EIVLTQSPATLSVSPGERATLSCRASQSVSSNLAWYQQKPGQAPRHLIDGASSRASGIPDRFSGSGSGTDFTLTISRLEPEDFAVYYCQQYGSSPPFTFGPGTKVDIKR | 99
CA185 (antibody, human IgG1, kappa, V domains shown, Intact IgG1) VH: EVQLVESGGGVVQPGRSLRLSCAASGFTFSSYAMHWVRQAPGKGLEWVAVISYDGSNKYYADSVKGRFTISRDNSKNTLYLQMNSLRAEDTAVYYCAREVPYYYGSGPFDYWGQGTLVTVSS VL: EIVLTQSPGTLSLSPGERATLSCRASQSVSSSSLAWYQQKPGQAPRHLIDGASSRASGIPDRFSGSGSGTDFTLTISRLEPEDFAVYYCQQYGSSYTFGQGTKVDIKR | 98
CA518 (antibody, human IgG1, kappa, V domains shown, Intact IgG1) VH: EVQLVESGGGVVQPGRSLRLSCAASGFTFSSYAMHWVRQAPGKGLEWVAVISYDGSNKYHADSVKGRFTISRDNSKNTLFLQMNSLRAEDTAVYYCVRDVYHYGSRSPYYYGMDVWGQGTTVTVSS VL: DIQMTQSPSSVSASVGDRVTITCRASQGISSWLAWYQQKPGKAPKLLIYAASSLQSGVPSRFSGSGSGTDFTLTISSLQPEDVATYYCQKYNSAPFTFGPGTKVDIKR | 101
